- Test system: Enterococcus faecium
- Procedure summary: Antibacterial activity against Enterococcus faecium ATCC 49452 at 10 % serum
- Assay type: functional
- Experimental setup: ATCC 49452, Serum
Measure: MIC (µg/mL)

[[record]]
smiles_notation = "CCCCCCCCCC(=O)N[C@@H](Cc1c[nH]c2ccccc12)C(=O)N[C@H](CC(N)=O)C(=O)N[C@@H](CCO)C(=O)N[C@@H]1C(=O)NCC(=O)N[C@@H](CCCNCc2ccc(OCc3ccccc3)c(Cl)c2)C(=O)N[C@@H](CC(=O)O)C(=O)N[C@H](C)C(=O)N[C@@H](CC(=O)O)C(=O)NCC(=O)N[C@H](CO)C(=O)N[C@@H]([C@H](C)CC(=O)O)C(=O)N[C@@H](CC(=O)c2ccccc2N)C(=O)O[C@@H]1C"
assayed_target = "Enterococcus faecium"
unit_of_measure = "µg/mL"
value_observed = 25

[[record]]
smiles_notation = "CCCCCCCCCC(=O)N[C@@H](Cc1c[nH]c2ccccc12)C(=O)N[C@H](CC(N)=O)C(=O)N[C@@H](CCO)C(=O)N[C@@H]1C(=O)NCC(=O)N[C@@H](CCCNCc2ccc(S(=O)(=O)NCc3ccc(F)cc3)cc2)C(=O)N[C@@H](CC(=O)O)C(=O)N[C@H](C)C(=O)N[C@@H](CC(=O)O)C(=O)NCC(=O)N[C@H](CO)C(=O)N[C@@H]([C@H](C)CC(=O)O)C(=O)N[C@@H](CC(=O)c2ccccc2N)C(=O)O[C@@H]1C"
assayed_target = "Enterococcus faecium"
unit_of_measure = "µg/mL"
value_observed = 6.25

[[record]]
smiles_notation = "CCCCCCCCCC(=O)N[C@@H](Cc1c[nH]c2ccccc12)C(=O)N[C@H](CC(N)=O)C(=O)N[C@@H](CCO)C(=O)N[C@@H]1C(=O)NCC(=O)N[C@@H](CCCNCc2cc3ccccc3o2)C(=O)N[C@@H](CC(=O)O)C(=O)N[C@H](C)C(=O)N[C@@H](CC(=O)O)C(=O)NCC(=O)N[C@H](CO)C(=O)N[C@@H]([C@H](C)CC(=O)O)C(=O)N[C@@H](CC(=O)c2ccccc2N)C(=O)O[C@@H]1C"
assayed_target = "Enterococcus faecium"
unit_of_measure = "µg/mL"
value_observed = 12.5

[[record]]
smiles_notation = "CCCCCCCCCC(=O)N[C@@H](Cc1c[nH]c2ccccc12)C(=O)N[C@H](CC(N)=O)C(=O)N[C@@H](CCO)C(=O)N[C@@H]1C(=O)NCC(=O)N[C@@H](CCCNCc2cccc(F)c2)C(=O)N[C@@H](CC(=O)O)C(=O)N[C@H](C)C(=O)N[C@@H](CC(=O)O)C(=O)NCC(=O)N[C@H](CO)C(=O)N[C@@H]([C@H](C)CC(=O)O)C(=O)N[C@@H](CC(=O)c2ccccc2N)C(=O)O[C@@H]1C"
assayed_target = "Enterococcus faecium"
unit_of_measure = "µg/mL"
value_observed = 12.5

[[record]]
smiles_notation = "CCCCCCCCCC(=O)N[C@@H](Cc1c[nH]c2ccccc12)C(=O)N[C@H](CC(N)=O)C(=O)N[C@@H](CC(=O)O)C(=O)N[C@@H]1C(=O)NCC(=O)N[C@@H](CCCNCc2ccc(-c3ccccc3)cc2)C(=O)N[C@@H](CC(=O)O)C(=O)N[C@H](C)C(=O)N[C@@H](CC(=O)O)C(=O)NCC(=O)N[C@H](CO)C(=O)N[C@@H]([C@H](C)CC(=O)O)C(=O)N[C@@H](CC(=O)c2ccccc2N)C(=O)O[C@@H]1C"
assayed_target = "Enterococcus faecium"
unit_of_measure = "µg/mL"
value_observed = 25

